Target: EPHB1 (UniProt P54762)
Sequence (P54762 whole entry, looked up): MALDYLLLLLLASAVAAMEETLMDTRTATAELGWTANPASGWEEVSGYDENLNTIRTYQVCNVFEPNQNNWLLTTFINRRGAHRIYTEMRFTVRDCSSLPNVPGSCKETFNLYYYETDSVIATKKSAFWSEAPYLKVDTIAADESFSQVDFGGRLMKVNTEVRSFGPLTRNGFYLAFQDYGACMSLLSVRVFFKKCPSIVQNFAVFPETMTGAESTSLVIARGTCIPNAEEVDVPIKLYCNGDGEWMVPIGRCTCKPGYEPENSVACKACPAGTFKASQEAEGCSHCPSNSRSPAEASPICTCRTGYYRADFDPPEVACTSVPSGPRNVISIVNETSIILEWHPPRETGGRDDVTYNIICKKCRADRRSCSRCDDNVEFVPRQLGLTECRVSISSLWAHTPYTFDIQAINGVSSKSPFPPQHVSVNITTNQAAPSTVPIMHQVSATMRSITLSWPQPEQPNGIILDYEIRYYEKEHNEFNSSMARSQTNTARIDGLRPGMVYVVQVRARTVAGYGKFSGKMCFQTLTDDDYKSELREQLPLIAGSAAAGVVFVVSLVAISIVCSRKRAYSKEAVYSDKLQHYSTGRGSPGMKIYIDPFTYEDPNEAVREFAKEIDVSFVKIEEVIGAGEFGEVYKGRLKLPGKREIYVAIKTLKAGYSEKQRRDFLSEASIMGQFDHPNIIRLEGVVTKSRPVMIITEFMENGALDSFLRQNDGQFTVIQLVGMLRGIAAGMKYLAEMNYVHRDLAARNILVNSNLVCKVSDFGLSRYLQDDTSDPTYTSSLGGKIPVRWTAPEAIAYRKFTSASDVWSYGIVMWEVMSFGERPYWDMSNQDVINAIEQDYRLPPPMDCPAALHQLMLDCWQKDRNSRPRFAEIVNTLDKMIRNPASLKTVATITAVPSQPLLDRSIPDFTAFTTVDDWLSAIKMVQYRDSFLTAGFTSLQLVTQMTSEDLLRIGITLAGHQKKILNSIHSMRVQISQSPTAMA
Assay: phosphorylation enrichment, bacterial display (enrichment ratio); higher = better substrate or ligand; peptides without Tyr show the background
MEASUREMENT KIND: phosphorylation enrichment
One number for each entry.

Previously resolved entries follow.
SEQ	TARGET SYSTEM	TEST RESULT
PGPQSYPIVTG [PAX5_Y299]	EPHB1 (UniProt P54762)	0.484
DKGTLYIVEQI [PLBD1_Y375]	EPHB1 (UniProt P54762)	0.579
KYLENYLNCLL [PLD2_Y169_R172C]	EPHB1 (UniProt P54762)	1.18
NFFEFYVDDPL [GCHFR_Y48_P53L_YF]	EPHB1 (UniProt P54762)	0.773
IRTIDYRYTVW [IDS_Y497]	EPHB1 (UniProt P54762)	0.666

Provide the reported phosphorylation enrichment of each entry below, same order.
1. SEELHYYVQNH [UQCRC2_Y207_F208Y]
2. KPGVNYFFRVS
3. KVALVYGQMNE [ATP5F1B_Y269]
4. EFITRYIASLK [PSMA7_Y110_YF]
5. GDFFRSLAEVA [YWHAG_Y133_Y133S_YF]
6. FLRKEYGGVNV [CBR3_Y81_L84V]
7. IRKTEYPFSSE [ATP2C1_Y452_A450T]
8. RREWYYEVIIV [BACE1_Y260]

1: 0.89; 2: 0.495; 3: 0.446; 4: 0.585; 5: 0.423; 6: 0.391; 7: 0.426; 8: 0.516

Provide the reported phosphorylation enrichment of each entry below, same order.
1. VATRWYRSPEL [CDKL5_Y177]
2. IVFTSYFLTIL [TAS2R16_Y239]
3. FGAHNYHPLPV [OAT_Y55_YF]

1: 0.421; 2: 0.676; 3: 0.573

Provide the reported phosphorylation enrichment of each entry below, same order.
1. CPTIHYNFMCN [TP53_Y234_T230P_YF]
2. AIQDAYMHITS [ADCY10_Y318]
3. PLDGEYFTPQI [TP53_Y327_L330P]
4. ALRASYTPSPA [ESS2_Y418]

1. 0.576
2. 0.469
3. 1.53
4. 0.352

Provide the reported phosphorylation enrichment of each entry below, same order.
1. FFCRWYRNRKS [EREG_Y144_YF]
2. ITVPAYFNDSQ [HSPA9_Y196]

1: 0.421; 2: 0.473

----------
Answer each item with its documented phosphorylation enrichment.
Target: FGFR1 (UniProt P11362)
Sequence (P11362 whole entry, looked up): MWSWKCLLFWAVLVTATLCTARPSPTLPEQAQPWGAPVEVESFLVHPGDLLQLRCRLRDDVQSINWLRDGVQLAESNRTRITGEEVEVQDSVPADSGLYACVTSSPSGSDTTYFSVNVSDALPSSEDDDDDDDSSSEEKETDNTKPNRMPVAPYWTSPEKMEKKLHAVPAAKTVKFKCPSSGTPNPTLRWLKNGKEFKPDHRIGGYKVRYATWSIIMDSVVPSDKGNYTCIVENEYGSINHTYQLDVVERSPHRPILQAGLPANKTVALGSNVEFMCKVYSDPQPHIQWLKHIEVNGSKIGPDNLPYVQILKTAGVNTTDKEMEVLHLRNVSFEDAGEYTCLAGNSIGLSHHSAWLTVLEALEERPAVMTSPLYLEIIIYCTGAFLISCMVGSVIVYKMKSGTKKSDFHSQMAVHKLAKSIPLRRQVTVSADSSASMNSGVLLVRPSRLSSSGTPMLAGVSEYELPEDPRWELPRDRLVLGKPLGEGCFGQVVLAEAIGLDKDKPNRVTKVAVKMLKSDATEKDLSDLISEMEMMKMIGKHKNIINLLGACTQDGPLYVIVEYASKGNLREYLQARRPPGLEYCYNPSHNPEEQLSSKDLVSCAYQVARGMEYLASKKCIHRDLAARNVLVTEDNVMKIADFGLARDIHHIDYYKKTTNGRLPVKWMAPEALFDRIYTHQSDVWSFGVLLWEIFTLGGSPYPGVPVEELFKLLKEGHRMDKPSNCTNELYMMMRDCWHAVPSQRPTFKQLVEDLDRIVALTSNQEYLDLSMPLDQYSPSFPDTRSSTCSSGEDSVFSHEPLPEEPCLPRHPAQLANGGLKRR
Experiment: phosphorylation enrichment, bacterial display (enrichment ratio); higher = better substrate or ligand; peptides without Tyr show the background

Previously resolved entries follow.
SEQ	phosphorylation enrichment
IFGVSYDEFRF [CFTR_Y512_YF]	0.5
PLQDVYKIGGI [EEF1A2_Y254]	0.505
PTFEHYANSTQ [SLC12A3_Y70_YF]	0.818

Please turn your attention to the following entry.
Entry FSPPFYHRNCM [HGD_Y334_R330S_YF] — recorded phosphorylation enrichment = 0.513

----------
Answer each item with its documented SH2 binding enrichment.
Molecular target: SHP2-C SH2
Assay: SH2 binding enrichment of the phosphorylated peptide, bacterial display (enrichment ratio); higher = better substrate or ligand; peptides without Tyr show the background
Answers are plain numbers.

SEQ	SH2 binding enrichment
QPGDIYHQTWA [GBA_Y244]	0.352
WHHTFYNELRV [ACTA1_Y93]	1.52
TLQSMSGCDVG [HLA-B_Y123_Y123S]	0.488
HTKKNYGNSSV [HDX_Y197_A193T]	0.647

Provide the reported SH2 binding enrichment of each entry below, same order.
1. DDKEYYSVHNK [MET_Y1235_Y1230D]
2. GANFEYIIAEK [ECHS1_Y35]

[0.961, 0.547]

Provide the reported SH2 binding enrichment of each entry below, same order.
1. FFCRWYRNRKS [EREG_Y144_YF]
2. DDKQPYEKKAA [HMGB1_Y144]
3. RLTEGYTGPFK [ZNF862_Y181_I178T]
4. CGQDPCIRELG [UROS_Y19_Y19C]
5. SYCYRYRCAPR [SUMF1_Y344_A348P]
6. VKANTYENYWP [GATM_Y100_K102N]
7. AGHEEYSAMRD [KRAS_Y64_Q61H]
8. AGQEDDDRLRP [RAC1_Y64_Y64D]

0.858
0.741
0.547
1.06
0.63
1.9
0.713
1.28

----------
Answer each item with its documented SH2 binding enrichment.
Molecular target: c-Src SH2
Assay: SH2 binding enrichment of the phosphorylated peptide, bacterial display (enrichment ratio); higher = better substrate or ligand; peptides without Tyr show the background
Answers are plain numbers.

SEQ	SH2 binding enrichment
GIYSGYDDAWD [POLR1C_Y36_N32I]	5.53
GLPQTYCVSGP [DYSF_Y1684]	0.611
FGMQLYQNFMH [GRB14_Y347_YF]	1.22
LWEGSYGKVKE [STK11_Y60_G56W]	0.507
QEVLEYFMKQM [PIK3CA_Y1038_A1035V]	0.479

Provide the reported SH2 binding enrichment of each entry below, same order.
1. FHLLPYTVRAM [PARS2_Y93_YF]
2. MFCAGYDTKQE [F10_Y407]

1. 1.34
2. 0.495

----------
Target: FGFR1 (UniProt P11362)
Experiment: phosphorylation enrichment, bacterial display (enrichment ratio); higher = better substrate or ligand; peptides without Tyr show the background
Label rule, in plain words: phosphorylation enrichment of 0.5 and up is class 1, under 0.5 is class 0.

SEQ	CLASSIFICATION
LLANAYIFVVQ [L1CAM_Y418_YF]	class 1
MSRNLYSGDFF [DDR2_Y736_YF]	class 1
KTGNIYRTEYG [MRPL3_Y265_M261T]	class 0
DSMQSYDLDFP [UNC13B_Y243_YF]	class 1
KRGIDYILWHM [FRMD1_Y225_R228W]	class 1

From here, focus on the item given below.
Decide: phosphorylation enrichment of SEDANYMRVSC [TTC3_Y1288_K1289M] >= 0.5? class 1

----------
Molecular target: Fyn (UniProt P06241)
Sequence (P06241 whole entry, looked up): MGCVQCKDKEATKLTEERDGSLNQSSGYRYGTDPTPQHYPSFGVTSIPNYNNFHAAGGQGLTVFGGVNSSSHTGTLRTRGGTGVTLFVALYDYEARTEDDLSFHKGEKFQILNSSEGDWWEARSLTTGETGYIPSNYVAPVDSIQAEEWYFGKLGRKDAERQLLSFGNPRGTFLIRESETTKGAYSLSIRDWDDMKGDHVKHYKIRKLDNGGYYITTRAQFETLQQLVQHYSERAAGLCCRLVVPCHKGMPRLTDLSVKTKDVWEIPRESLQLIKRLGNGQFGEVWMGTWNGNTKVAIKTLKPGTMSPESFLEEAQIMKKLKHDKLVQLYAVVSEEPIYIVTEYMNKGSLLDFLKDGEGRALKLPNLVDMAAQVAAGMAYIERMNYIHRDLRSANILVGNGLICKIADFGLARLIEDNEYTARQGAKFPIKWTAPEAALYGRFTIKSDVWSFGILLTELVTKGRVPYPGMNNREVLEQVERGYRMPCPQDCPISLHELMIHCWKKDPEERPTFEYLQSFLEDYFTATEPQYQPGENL
Experiment: phosphorylation enrichment, bacterial display (enrichment ratio); higher = better substrate or ligand; peptides without Tyr show the background
MEASUREMENT KIND: phosphorylation enrichment
One number for each entry.

Previously resolved entries follow.
SEQ	TEST RESULT
FETDFYRKGGK [INSR_Y1190_YF]	0.381
FTNRSYDLDFD [MYC_Y12_N11S_YF]	0.55

Provide the reported phosphorylation enrichment of each entry below, same order.
1. SGETEYNPTEA [NBEAL2_Y2748]
2. HLLRIYFDITD [MMP27_Y307_W304L_YF]
3. SDQRRYSLIDP [CLIP2_Y972_R977P]

[0.69, 0.491, 0.574]

----------
Molecular target: EPHB1 (UniProt P54762)
Assay: phosphorylation enrichment, bacterial display (enrichment ratio); higher = better substrate or ligand; peptides without Tyr show the background
MEASUREMENT KIND: phosphorylation enrichment

Previously resolved entries follow.
SEQ	phosphorylation enrichment
DFCDLYGGEKF [PTPN11_Y66_Y63C_YF]	0.511
ANVKWYRNGRE	0.509
RRSQSYNPTSG [PLEKHA2_Y185_I186N]	0.435

Please turn your attention to the following entry.
Entry ATGLIYIGSHD [AASDH_Y870_T865A] — recorded phosphorylation enrichment = 0.724

----------
Target: Hck (UniProt P08631)
Sequence (P08631 whole entry, looked up): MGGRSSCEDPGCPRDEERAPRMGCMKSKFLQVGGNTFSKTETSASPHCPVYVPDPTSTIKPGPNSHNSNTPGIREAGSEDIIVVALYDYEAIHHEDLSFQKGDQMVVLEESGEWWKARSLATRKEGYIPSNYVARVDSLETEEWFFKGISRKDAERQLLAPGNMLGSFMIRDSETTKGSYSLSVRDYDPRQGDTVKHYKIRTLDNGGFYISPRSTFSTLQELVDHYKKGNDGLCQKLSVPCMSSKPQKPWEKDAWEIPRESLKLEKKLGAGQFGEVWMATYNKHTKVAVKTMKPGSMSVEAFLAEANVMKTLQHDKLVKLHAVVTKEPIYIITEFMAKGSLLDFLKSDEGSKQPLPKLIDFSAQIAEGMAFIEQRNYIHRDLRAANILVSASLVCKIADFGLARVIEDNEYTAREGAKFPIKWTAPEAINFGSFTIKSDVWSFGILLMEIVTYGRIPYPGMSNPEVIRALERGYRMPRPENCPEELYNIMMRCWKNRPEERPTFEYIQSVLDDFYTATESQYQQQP
Test: phosphorylation enrichment, bacterial display (enrichment ratio); higher = better substrate or ligand; peptides without Tyr show the background
Label rule, in plain words: phosphorylation enrichment of 0.5 and up is fulfilled, under 0.5 is not fulfilled.

Study these solved cases before continuing.
SEQ	CLASSIFICATION
CLAQRYLIWEC [SCN5A_Y694_R689C]	fulfilled
AIYEGYALPHA [ACTC1_Y171_P166A]	fulfilled
AAGGRYDGLLG [HARS2_Y364_V368L]	not fulfilled

Decide: phosphorylation enrichment of RAADFYSQQMA [GBP6_Y334_YF] >= 0.5? not fulfilled

Decide: phosphorylation enrichment of PLKFLYPNIDR [STAT1_Y668_K673R_YF] >= 0.5? fulfilled

Decide: phosphorylation enrichment of QPDFLYDHIQP [TRRAP_Y862] >= 0.5? fulfilled

Decide: phosphorylation enrichment of DEQKKYYNAMK [SCN5A_Y1494_E1489D] >= 0.5? not fulfilled

Decide: phosphorylation enrichment of ATHRGYDLDNP [MMUT_Y146_S148L] >= 0.5? not fulfilled

Decide: phosphorylation enrichment of ITNLLYHVVGG [GBA_Y412_W417G] >= 0.5? fulfilled

Decide: phosphorylation enrichment of SVTSTYSPALN [TP53_Y126_C124S] >= 0.5? not fulfilled

Decide: phosphorylation enrichment of AKRKGYDMRVD [NEB_Y2770] >= 0.5? not fulfilled

Decide: phosphorylation enrichment of FISVGYVDDTL [HLA-B_Y51_Q56L] >= 0.5? not fulfilled

Decide: phosphorylation enrichment of VISNAYVDLSP [HSD17B4_Y602_A606S] >= 0.5? fulfilled

Decide: phosphorylation enrichment of PSRKDYETFQP [CTNND2_Y1154_YF] >= 0.5? fulfilled

Decide: phosphorylation enrichment of VKANTYENYWP [GATM_Y100_K102N] >= 0.5? fulfilled

Decide: phosphorylation enrichment of DASAVYLRDFQ [PLCG2_Y242_H244R] >= 0.5? fulfilled
